molecular target: human recombinant (CHO cell) AT1 receptor (Homo sapiens, UniProt P30556); construct: expressed in transfected cells; host or cells: CHO cells; test: Angiotensin II inhibition test (radioligand binding to AT1 receptor); conditions: test compound concentration 10^−9 M; radioactive iodine-labeled angiotensin II, 37° C., sixty minutes; read-out: Inhibition rate (%)
Sequence (P30556 whole entry): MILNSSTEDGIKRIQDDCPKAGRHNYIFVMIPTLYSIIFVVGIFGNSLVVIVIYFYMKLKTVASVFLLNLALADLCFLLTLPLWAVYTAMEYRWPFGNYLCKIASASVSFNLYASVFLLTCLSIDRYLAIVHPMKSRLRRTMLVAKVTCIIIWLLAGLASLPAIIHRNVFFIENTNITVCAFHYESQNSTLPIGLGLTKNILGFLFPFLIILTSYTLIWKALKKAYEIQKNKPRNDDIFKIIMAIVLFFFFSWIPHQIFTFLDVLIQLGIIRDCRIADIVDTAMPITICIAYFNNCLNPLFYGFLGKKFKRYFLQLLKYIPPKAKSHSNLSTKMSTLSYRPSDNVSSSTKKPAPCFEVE
Would you mind labelling by inhibition at 0.001 µM? At or over 60% is MET, under is NOT MET.

Challenge: Is inhibition at 0.001 µM at least 60%? Consider CCCc1nc(CSc2ccc3nc(COc4ccc(CN(CC(=O)O)C(=O)Oc5ccccc5)cc4)n(C)c3c2)c(C(=O)OCC)n1Cc1ccc(-c2ccccc2-c2nnn[nH]2)cc1
Response given: MET

Challenge: Is inhibition at 0.001 µM at least 60%? Consider CCCCc1nc(Cl)c(C[S+]([O-])c2ccc3nc(COc4ccc(CC5SC(=O)NC5=O)cc4)n(C)c3c2)n1Cc1ccc(-c2ccccc2-c2nnn[nH]2)cc1 (stereo not shown)
Response given: NOT MET

Challenge: Is inhibition at 0.001 µM at least 60%? Consider CCCc1nc(CSc2ccc(Oc3ccc4nc(COc5ccc(CC6SC(=O)NC6=O)cc5)n(C)c4c3)cc2)c(C(=O)OCC)n1Cc1ccc(-c2ccccc2-c2nnn[nH]2)cc1 (stereo not shown)
Response given: MET

Challenge: Is inhibition at 0.001 µM at least 60%? Consider CCCc1nc2c(C)cc(COc3ccc4nc(COc5ccc(CC6SC(=O)NC6=O)cc5)n(C)c4c3)cc2n1Cc1ccc(-c2ccccc2-c2nnn[nH]2)cc1 (stereo not shown)
Response given: NOT MET

Challenge: Is inhibition at 0.001 µM at least 60%? Consider CCCc1nc(CS(=O)(=O)c2ccc(Oc3ccc4nc(COc5ccc(CC6SC(=O)NC6=O)cc5)n(C)c4c3)cc2)c(C(=O)OCC)n1Cc1ccc(-c2ccccc2-c2nnn[nH]2)cc1 (stereo not shown)
Response given: NOT MET

Challenge: Is inhibition at 0.001 µM at least 60%? Consider CCCc1nc(COc2ccc3nc(COc4ccc(CC5SC(=O)NC5=O)cc4)n(C)c3c2)c(C(=O)OCC)n1Cc1ccc(-c2ccccc2-c2nnn[nH]2)cc1 (stereo not shown)
Response given: NOT MET

Challenge: Is inhibition at 0.001 µM at least 60%? Consider CCCc1nc(CSCCOc2ccc3nc(COc4ccc(CC5SC(=O)NC5=O)cc4)n(C)c3c2)c(C(=O)OCC)n1Cc1ccc(-c2ccccc2-c2nnn[nH]2)cc1 (stereo not shown)
Response given: NOT MET

Challenge: Is inhibition at 0.001 µM at least 60%? Consider CCCc1nc(CNc2ccc(Oc3ccc4nc(COc5ccc(CC6SC(=O)NC6=O)cc5)n(C)c4c3)cc2)c(C(=O)OCC)n1Cc1ccc(-c2ccccc2-c2nnn[nH]2)cc1 (stereo not shown)
Response given: NOT MET

Challenge: Is inhibition at 0.001 µM at least 60%? Consider CCCc1nc2c(C)cc(C(=O)NCc3ccc(Oc4ccc5nc(COc6ccc(CC7SC(=O)NC7=O)cc6)n(C)c5c4)cc3)cc2n1Cc1ccc(-c2ccccc2-c2nnn[nH]2)cc1 (stereo not shown)
Response given: MET

Challenge: Is inhibition at 0.001 µM at least 60%? Consider CCCc1nc(CSc2ccc(Oc3ccc4nc(COc5ccc(CC6SC(=O)NC6=O)cc5)n(C)c4c3)cc2)c(C(=O)OC)n1Cc1ccc(-c2ccccc2-c2nnn[nH]2)cc1 (stereo not shown)
Response given: MET

Challenge: Is inhibition at 0.001 µM at least 60%? Consider CCCc1nc(C[S+]([O-])c2ccc(Oc3ccc4nc(COc5ccc(CC6SC(=O)NC6=O)cc5)n(C)c4c3)cc2)c(C(=O)OCC)n1Cc1ccc(-c2ccccc2-c2nnn[nH]2)cc1 (stereo not shown)
Response given: NOT MET

Challenge: Is inhibition at 0.001 µM at least 60%? Consider CCCc1nc2c(C)cc(CN(C)c3ccc4nc(COc5ccc(CC6SC(=O)NC6=O)cc5)n(C)c4n3)cc2n1Cc1ccc(-c2ccccc2C(=O)O)cc1 (stereo not shown)
Response given: NOT MET

Challenge: Is inhibition at 0.001 µM at least 60%? Consider CCCc1nc(CSc2ccc3nc(COc4ccc(CC(OCc5ccc(Cl)cc5)C(=O)O)cc4)n(C)c3c2)c(C(=O)OCC)n1Cc1ccc(-c2ccccc2-c2nnn[nH]2)cc1 (stereo not shown)
Response given: MET

Challenge: Is inhibition at 0.001 µM at least 60%? Consider CCCc1nc(CSc2ccc3nc(COc4ccc(CC5SC(=O)NC5=O)cc4)n(C)c3c2)c(C(=O)OCC)n1Cc1ccc(-c2ccccc2-c2nnn[nH]2)cc1 (stereo not shown)
Response given: MET

Challenge: Is inhibition at 0.001 µM at least 60%? Consider CCCc1nc(CSCCSc2ccc(Oc3ccc4nc(COc5ccc(CC6SC(=O)NC6=O)cc5)n(C)c4c3)cc2)c(C(=O)OCC)n1Cc1ccc(-c2ccccc2-c2nnn[nH]2)cc1 (stereo not shown)
Response given: NOT MET

Numbers sourced from patent US20130165446A1.
